System: flaviviruses
test-parameters: read-out: CC50 (concentration required to kill 50% of cells exposed to drug only); exceeded the highest concentration tested
metric-name: CC50

## Task What CC50 value was documented for this compound, CNc1nc(N)nc2c1ncn2[C@@H]1O[C@H](CO[P@](=O)(N[C@@H](C)C(=O)OC(C)C)Oc2ccccc2)[C@@H](O)[C@@]1(C)F ?
## Result 85 to 170 µM

* * *

run-description: Pharmacokinetic study in SAD cohorts
Format: in vivo, human
test-parameters: both sexes, human, plasma, po, 1500 mg, human plasma, single oral Compound 2 1500 mg, fasting
metric-name: AUC(0-inf) (ng·h/mL)
# output: bare number, implied unit ng·h/mL

## Task Fill in: AUC(0-inf) of CNc1nc(N)nc2c1ncn2[C@@H]1O[C@H](CO[P@](=O)(N[C@@H](C)C(=O)OC(C)C)Oc2ccccc2)[C@@H](O)[C@@]1(C)F is ___
## Result 4630
